Examples of compounds with documented pIC50 follow.
# system: mGlyT-1b (Mus musculus, UniProt P28571)
# Sequence (P28571 1-651 isoform P28571-2): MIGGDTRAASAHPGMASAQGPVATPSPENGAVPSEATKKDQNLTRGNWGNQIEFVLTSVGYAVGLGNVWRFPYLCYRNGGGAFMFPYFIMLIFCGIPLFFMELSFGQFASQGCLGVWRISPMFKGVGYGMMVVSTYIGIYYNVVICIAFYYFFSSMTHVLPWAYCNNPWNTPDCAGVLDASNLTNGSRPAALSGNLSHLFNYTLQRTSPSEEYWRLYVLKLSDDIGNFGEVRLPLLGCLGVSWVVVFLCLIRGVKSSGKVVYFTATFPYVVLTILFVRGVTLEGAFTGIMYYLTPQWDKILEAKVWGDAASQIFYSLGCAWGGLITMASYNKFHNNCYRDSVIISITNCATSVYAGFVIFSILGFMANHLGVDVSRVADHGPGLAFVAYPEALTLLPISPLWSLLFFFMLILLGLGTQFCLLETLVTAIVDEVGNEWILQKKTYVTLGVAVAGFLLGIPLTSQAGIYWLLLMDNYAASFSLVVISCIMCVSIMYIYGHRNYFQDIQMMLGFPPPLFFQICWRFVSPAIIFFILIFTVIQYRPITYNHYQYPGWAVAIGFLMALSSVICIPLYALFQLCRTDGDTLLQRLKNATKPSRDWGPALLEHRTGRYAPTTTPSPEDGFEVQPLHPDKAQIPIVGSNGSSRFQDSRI
# assay explanation: Glycine Uptake Inhibition Assay (mGlyT-1b)
# Experimental: DMEM complete medium: Nutrient mixture F-12 (Gibco Life-technologies), fetal bovine serum (FBS) 5%, (Gibco life technologies), Penicillin/Streptomycin 1% (Gibco life technologies), Hygromycin 0.6 mg/ml (Gibco life technologies), Glutamine 1 mM Gibco life technologies) Uptake buffer (UB): 150 mM NaCl, 10 mM Hepes-Tris, pH 7.4, 1 mM CaCl2, 2.5 mM KCl, 2.5 mM MgSO4, 10 mM (+) D-glucose. Flp-in™-CHO (Invitrogen Cat n° R758-07) cells stably transfected with mGlyT1b cDNA. […]
pIC50: −log10 of the molar value.
measured property: pIC50

1. O=C(CN(Cc1ccccc1Cl)C(=O)c1ccc(Cl)cc1)Nc1cccc(C(F)(F)F)c1 [Example 53]	6.62
2. O=C(CN(Cc1cc(F)cc(F)c1)C(=O)c1ccc(Cl)cc1)Nc1ccc(F)c(Cl)c1 [Example 89]	6.51
3. COc1ccc(C(=O)N(CC(=O)Nc2ccc(Cl)c(Cl)c2)Cc2cccs2)cc1 [Example 18]	6.59
4. O=C(CN(Cc1cccc(F)c1F)C(=O)c1ccc(Cl)cc1)Nc1ccc(F)c(Cl)c1 [Example 82]	6.97
5. O=C(CN(Cc1cccs1)C(=O)c1ccc(Cl)cc1)Nc1cccc(Cl)c1 [Example 17]	7.11
6. N#Cc1ccc(C(=O)N(CC(=O)Nc2cccc(F)c2)Cc2ccccc2Cl)cc1 [Example 62]	6.45
7. O=C(CN(Cc1ccc(F)cc1F)C(=O)c1ccc(Cl)cc1)Nc1cccc(Cl)c1 [Example 5]	6.80
8. N#Cc1cccc(CN(CC(=O)Nc2cccc(Cl)c2)C(=O)c2ccc(Cl)cc2)c1 [Example 100]	6.72

###

# system: mGlyT-1b (Mus musculus)
# assay explanation: Glycine Uptake Inhibition Assay (mGlyT-1b)
Note to self: IC50 under 200 nM means t, ties and anything higher get f.

1) O=C(CN(C(=O)COc1ccc(Cl)cc1)c1ccccc1)Nc1ccc(Cl)c(Cl)c1	f
2) O=C(CN(C(=O)c1ccc(C(F)(F)F)nc1)c1ccccc1)Nc1ccc(Cl)c(Cl)c1	t
3) COc1ccc(C(=O)N(CC(=O)Nc2ccc(F)c(Cl)c2)c2ccccc2)cc1	t
4) COc1ccc(C(=O)N(CC(=O)Nc2cccc(Cl)c2)c2ccccc2)cc1	f
5) O=C(CN(C(=O)c1cc2ccccc2s1)c1ccccc1)Nc1ccc(Cl)c(Cl)c1	t
6) O=C(CN(Cc1ccccc1Cl)C(=O)c1ccc(F)cc1)Nc1cccc(C(F)(F)F)c1	t
7) O=C(CN(Cc1ccccc1Cl)C(=O)c1ccc(OC(F)(F)F)cc1)Nc1ccc(F)c(Cl)c1	f

###

# system: mGlyT-1b (Mus musculus, UniProt P28571)
# assay explanation: Glycine Uptake Inhibition Assay (mGlyT-1b)
Below, each entry is listed alongside its reported IC50.
measured property: IC50 (nM)

1) O=C(CN(Cc1c(F)cccc1F)C(=O)c1ccc(OC(F)(F)F)cc1)Nc1ccc(F)c(Cl)c1 [Example 71]	107
2) CC(C)(C)CCN(CC(=O)Nc1cccc(Cl)c1)C(=O)c1ccc(Cl)cc1 [Example 96]	359
3) N#Cc1ccc(C(=O)N(CC(=O)Nc2ccc(F)c(Cl)c2)Cc2cccc(F)c2F)cc1 [Example 85]	123
4) Cc1cccc(CN(CC(=O)Nc2cccc(Cl)c2)C(=O)c2ccc(Cl)cc2)c1 [Example 103]	142
